biological target: human GPVI-Fc (isoform and haplotype not stated) used in the competition ELISA (human) (UniProt Q9HCN6); assay: Competition ELISA (MSD): human GPVI-Fc preincubated with Fab, then on coated VitroCol (competitor)
assay endpoint: IC50
Write the quantity with the unit trailing the number.

## Task In one line, give reported IC50 of the entry Fab #4 comprising a modified heavy chain constant region (Fab, V domains shown) VH: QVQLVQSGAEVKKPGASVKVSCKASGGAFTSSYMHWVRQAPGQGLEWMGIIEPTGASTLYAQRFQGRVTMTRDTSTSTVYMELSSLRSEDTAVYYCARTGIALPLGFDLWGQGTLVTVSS VL: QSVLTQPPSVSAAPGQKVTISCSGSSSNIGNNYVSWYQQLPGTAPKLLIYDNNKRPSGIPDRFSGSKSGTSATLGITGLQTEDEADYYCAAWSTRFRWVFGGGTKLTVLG .
## Result 10.6 nM
